B1: RAD51 (parent)
chain: APKKELINIKGISEAKADKILAEA

# Variants of: B1
# assay.explanation: protein stability index of a GFP-peptide fusion (GPS, HEK-293T) (PSI 1-6); higher = more stable;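 note: lentivirally expressed fusions sorted by FACS into six bins by GFP to DsRed ratio, PSI derived from sequencing read proportions per bin multiplied by bin number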
# experimental.parameters: c terminus: a fixed tail appended
metric: protein stability index
Give your answer as a number; write no unit.

The cases that follow already have their protein stability index on record.
APKKELINIKGISESKADKILAEA : 4.78
APKKELINIKGISEAKFDKILAEA : 3.73

Consider now this further variant.
# get_value(readout='protein stability index', item= "HPKKELINIKGISEAKADKILAEA" )
4.37
